Test system: MDA-MB-435
Experiment: NCI tumour cell line growth inhibition, 48 h
Reported TGI values for the following compounds.
quantity kind: TGI

In [3]: df
Out[3]:
                                test_smiles    result
0             CC(C)CCn1nc(N)c2nc3ccccc3nc21  > 100 µM
1  Cn1ccnc1Sc1ccc(C=Nc2ccc3nc(SCC(=O)NC4CCCCC4)sc3c2)cc1[N+](=O)[O-]  > 100 µM
2  O=C(O)C12CC3(C(=O)O)CC(C(=O)O)(CC(C(=O)O)(C1)C3=O)C2=O  > 100 µM

###

Test system: HT29 colon
Test: NCI tumour cell line growth inhibition, 48 h
Reported TGI values for the following molecules.
quantity kind: TGI

molecule	quantity kind	result
CC(C)(C)c1ccc(OCC(=O)O)c(Cl)c1	TGI	> 100 µM
O=C1C(=O)N(c2cc(Cl)ccc2Cl)C(=O)C(=O)C1c1nc2ccccc2o1	TGI	> 100 µM
O=C(NCc1ccc(S(=O)(=O)c2cc(F)cc(F)c2)cc1)c1ccc2nccn2c1	TGI	> 100 µM
O=C(CCc1cccc(O)c1)NCCCNC(=O)CCc1cccc(O)c1	TGI	> 100 µM
NC(=O)c1ncn2c1NC(=O)CC2	TGI	> 100 µM
O=C(CSC(c1ccccc1)c1ccccc1)N/N=C/c1ccco1	TGI	48.3 µM
C[C@]12CC[C@@H]3c4ccc(O)c([N+](=O)[O-])c4CC[C@H]3[C@@H]1CC[C@@H]2NS(=O)(=O)c1cccc(Br)c1	TGI	3.92 µM
Cc1ncc([N+](=O)[O-])n1CCNS(=O)(=O)CCCn1ncnc1[N+](=O)[O-]	TGI	> 100 µM
COC(=O)/C(=C\c1ccc(N(CCC#N)CCC#N)cc1)NC(=O)c1cc([N+](=O)[O-])ccc1Cl	TGI	> 100 µM
Cc1cccc(N=C2NC(=O)C(CC(=O)Nc3cccc(C)c3C)S2)c1 (stereo not given)	TGI	> 100 µM
CC(C(=O)n1c2ccccc2c2ccccc21)N(c1ccccc1)c1ccccc1 (stereo not given)	TGI	37.7 µM
COC(C(=O)[C@@H](O)[C@@H](C)O)[C@@H]1Cc2cc3cc(O[C@H]4C[C@@H](O[C@H]5C[C@@H](O)[C@H](O)C(C)O5)[C@H](O)C(C)O4)c(C)c(O)c3c(O)c2C(=O)[C@H]1O[C@H]1C[C@@H](O[C@H]2C[C@@H](O[C@H]3C[C@@H](O)[C@H](OC)C(C)O3)[C@@H](O)C(C)O2)[C@H](O)C(C)O1 (stereo not given in full)	TGI	0.131 µM
CCOc1ccccc1NC(=O)C(=O)Cc1nc2ccccc2s1	TGI	> 100 µM
O=C(O)CN(c1ccccc1)S(=O)(=O)c1ccc([N+](=O)[O-])cc1	TGI	> 100 µM
O=C(O)c1c2c(cc3c1CC1(Cc4ccccc4C1=O)C3)CCC2 (stereo not given)	TGI	> 69.7 µM
NS(=O)(=O)c1ccc(NC(NC(=O)C(C(F)(F)F)C(F)(F)F)(C(F)(F)F)C(F)(F)F)cc1	TGI	> 100 µM
CC1=C(c2cc(C(=O)Nc3ccc(Cl)cc3)nc(=S)[nH]2)Sc2ccccc2N1	TGI	> 100 µM
CCOC(CN(C)C(=S)Nc1cccc2ccccc12)OCC	TGI	> 10 µM
Nc1ccc2[nH]cc(CCC(=O)O)c2c1	TGI	> 100 µM
COc1cc(CC(C)N)ccc1O (stereo not given)	TGI	> 100 µM
Nc1ccccc1SC1CC(=O)N(c2ccc(Cl)c(Cl)c2)C1=O (stereo not given)	TGI	> 100 µM
Cc1cc2nc(-c3cc(C(C)(C)C)c(O)c(C(C)(C)C)c3)[nH]c2cc1C	TGI	> 100 µM
O=C1CS(=O)C23c4cc5ccccc5n4CCC2CCCN13 (stereo not given)	TGI	> 100 µM
C[C@]1(S(=O)(=O)c2ccccc2)C[C@H]2N(Cc3ccccc3)[C@@H]1CCC21OCCO1	TGI	> 100 µM
CO/N=C(/C)c1cccc(Nc2cc(-c3ccccc3)nc3ccc(OC)cc23)c1	TGI	> 100 µM

###

Reported TGI values for the following compounds.
Test system: MDA-N
Assay: NCI tumour cell line growth inhibition, 48 h
quantity kind: TGI (µM)

>>> df
                                   compound  value_relation_sign  numeric_readout
0  O=C1c2cccc(NCCNCCO)c2C(=O)c2cccc(NCCNCCO)c21                    =             1.55
1  COc1ccc(N=C2C(=S)N(c3ccc(OC)cc3)/C(=N/S(=O)(=O)c3ccccc3)N2c2ccccc2)cc1                    =             8.81
2  O=C(O)c1ccc2c(c1)CC1(C2)Cc2cc3c(cc2C1=O)CCC3 (stereo not given)                    >              100
3  COc1cc(OCc2ccc3nc(OC)c(OC)nc3c2)cc(OC)c1OC                    >               10
4  Cc1nn(C(=O)c2ccc(Cl)cc2)c2c1C(c1ccc(O)cc1)SC(N)=N2 (stereo not given)                    >               10

###

System: ACHN renal
Experiment: NCI tumour cell line growth inhibition, 48 h
quantity kind: GI50

>>> df
                                   molecule  system_tested    result
0  COC(=O)c1cc(/C=C/c2ccc(S(N)(=O)=O)cc2)ccc1O     ACHN renal   29.6 µM
1  COc1ccc(-c2csc(NC(=O)CSc3nc(C)c(-c4ccccc4)n3Nc3ccccc3)n2)cc1     ACHN renal  > 100 µM
2  C[C@]12CC[C@@H]3c4ccc(O)c([N+](=O)[O-])c4CC[C@H]3[C@@H]1CC[C@@H]2NS(=O)(=O)c1cccc(Br)c1     ACHN renal   2.59 µM
3  CCCCCCCCCCCCOC1C(C(CC(=O)NCCN2CCCC2)NS(=O)(=O)c2cc(Cl)cc(Cl)c2)OC2OC(C)(C)OC21 (stereo unspecified)     ACHN renal    1.9 µM
4   O=C1C(Cl)=C(Nc2ccccc2O)C(=O)N1Cc1ccccc1     ACHN renal   20.6 µM
5  O=C(N/N=C/c1ccc([N+](=O)[O-])o1)c1ccc(O)cc1     ACHN renal   5.46 µM

###

Tested on: HCT-15 colon
Assay: NCI tumour cell line growth inhibition, 48 h
Reported TGI values for the following molecules.
quantity kind: TGI

molecule	result
C[C@]12CC[C@H](O)C=C1CC[C@@H]1[C@@H]2CC[C@]2(C)C(c3ccc(=O)oc3)CC[C@]12O (stereo partly drawn)	0.0803 µM
COc1cc(C(=O)N2CCc3c([nH]c4c([N+](=O)[O-])c(OC)ccc34)C2C)cc(OC)c1OC (stereo not drawn)	> 100 µM
Cc1cc2nc(-c3cc(C(C)(C)C)c(O)c(C(C)(C)C)c3)[nH]c2cc1C	> 100 µM
Cc1nn(C(=O)c2ccc(Cl)cc2)c2c1C(c1ccc(O)cc1)SC(N)=N2 (stereo not drawn)	> 10 µM
COc1ccc(/C=C(/c2ccccc2)[N+](=O)[O-])cc1	1.86 µM
CC1=C(C(=O)Nc2ccccc2)C(c2ccc(C3C(C(=O)Nc4ccccc4)=C(C)NC(C)=C3C(=O)Nc3ccccc3)cc2)C(C(=O)Nc2ccccc2)=C(C)N1	9 µM
COC(=O)c1cc(C)ccc1CC(Cc1ccc(C)cc1)C(=O)OC (stereo not drawn)	> 77.9 µM
Cc1ccc(Nc2nnc(-c3ccc4c(c3)OCO4)o2)c(C)c1	> 100 µM
CCOC(=O)[C@@H]1ON2O[C@@H](OC3CCCC3(c3ccccc3)c3ccccc3)C[C@H]3OC(=O)[C@@H]1C32 (stereo partly drawn)	60.7 µM
CC1=C[C@@H](C)C[C@]2(C)CC[C@H](O2)[C@]23CC[C@](C(=O)O)(C[C@H](O2)[C@@H]2O[C@@](C)(CC2=O)[C@@H](O)[C@H]2CC[C@@]4(CCC[C@@H](O4)[C@H](C)C(=O)O[C@H]4C[C@H]([C@]5(O)OCC[C@H](C)[C@@H]5O)O[C@H]4C=C1)O2)O3	> 10 µM
O=C(O)C12CC3(C(=O)O)CC(C(=O)O)(CC(C(=O)O)(C1)C3=O)C2=O	> 100 µM
Cc1ccc(S(=O)(=O)NC(=O)NNc2ccc(F)cc2)cc1	> 100 µM
O=C(NO)c1ccc(CN(c2cnccn2)c2cnccn2)cc1	46.8 µM

###

Tested on: NCI/ADR-RES ovarian
Experiment: NCI tumour cell line growth inhibition, 48 h
Reported TGI values for the following compounds.
quantity kind: TGI

                                    compound     result
 0  COc1ccc(Cc2cnc(NC(=O)c3ccc4c(c3)OCCO4)s2)cc1   > 100 µM
 1  COc1ccc(N=Nc2c3c(c(O)c4ccccc24)CCC(C)(C)O3)cc1   > 100 µM
 2      O=C1CCc2ccc3c(c21)CC1(Cc2ccccc2C1)C3    53.6 µM
 3  CC/C=C/C/C=C/C/C=C/C/C=C/C/C=C/C/C=C/CCC(=O)Nc1ccn([C@@H]2O[C@H](CO)[C@@H](O)C2(F)F)c(=O)n1    16.9 µM
 4             CC(C)CCn1nc(N)c2nc3ccccc3nc21   > 100 µM
 5  NS(=O)(=O)c1ccc(NC(NC(=O)C(C(F)(F)F)C(F)(F)F)(C(F)(F)F)C(F)(F)F)cc1   > 100 µM
 6  COC(=O)C1(Cc2ccc3c(c2)CCC3)Cc2ccccc2C1=O (stereo unspecified)   > 100 µM
 7  CCCCCc1ccc(S(=O)(=O)Nc2cc(-c3csc(NC(C)=O)n3)ccc2N2CCN(C)CC2)cc1    9.18 µM
 8  COc1ccccc1N1CCN(CCCNC(=O)c2cc(Cl)c(N)c(Cl)c2)CC1   > 100 µM
 9       Nc1nc(Nc2ccc(Cl)cc2)sc1C(=O)c1cccs1   > 100 µM
10     O=[N+]([O-])c1ccc(CSCc2ccc(Cl)cc2)cc1   > 100 µM
11  CCOC(=O)C1CN(C2CC2)CCC1=O (stereo unspecified)   > 100 µM
12  Cc1c(C#N)c(N)n(C2OCC(O)C(O)C2O)c(=S)c1C#N (stereo unspecified)   > 100 µM
13   COc1ccc(/C=C(/c2ccccc2)[N+](=O)[O-])cc1    4.66 µM
14  Cc1cn([C@H]2C[C@](C)(CO)N(C)O2)c(=O)[nH]c1=O   > 100 µM
15  CCN(CC)CCNC(=O)c1ccc(C)c(OCc2ccccc2)c1[N+](=O)[O-]  > 62.8 µM

Values compiled from PubChem BioAssay (NCI).
